Measure name: melting point

Return reported melting point; argument: `CNCCCNc1ccc2c(NC(=O)CC34CC5CC(CC(C5)C3)C4)c(C)ccc2n1` 217 to 224 °C

What measured melting point goes with `CC1(C)CC(=O)C2=C(C1)NC1=C(C(=O)CC(C)(C)C1)C2c1cccc(Oc2cc(Cl)cc(Cl)c2)c1` ? 254 to 255 °C

Given the entry `Cc1c(Br)cnc(NC(=O)C2CC2)c1[N+](=O)[O-]` , report its measured melting point. 205 °C

Query (molecule): `COc1ccc2cc3c(N)nn(CCN4CCOCC4)c3nc2c1` ; field requested: melting point 166 to 168 °C

Recorded melting point for `O=c1cc(CO)n2c(n1)COc1ccccc1-2` , please? 235 to 237 °C

# melting point lookup, item COc1ccccc1N1CCN(CC(O)COc2cccc(C(=O)C=CN(C)C)c2)CC1 (stereo not given) 131 °C

Tell me the measured melting point of CCCC(=O)C1=C(O)CC(c2cccnc2)CC1=O (stereo not given) , please. 72 °C

If you can, please state the reported melting point value of CCc1cn(C2CC(O)C(CN(C)Cc3ccccc3)O2)c(=O)[nH]c1=O (stereo not given) . 135 to 137 °C

Can you share its melting point? I mean this molecule: `O=C(O)CC(=O)Oc1cccc(-c2cn3c(n2)sc2ccccc23)c1` 159 to 161 °C

I am curious: what melting point value has been reported for O=c1[nH]c(=O)n(C2CC(Br)C(CBr)O2)cc1C=CBr (stereo not given) ? 153 °C

Fill in the blank: the reported melting point of `CCCCOc1c(CO)n(CC(C)(C)C)c(=O)c2ccc(OCC)cc12` is ____. 92.5 to 93 °C

GET /values?readout=melting point&item= O=C(CO[C@H]1Cc2c(cccc2OCc2ccccc2)C[C@H]1OCC(=O)N1CCOCC1)N1CCOCC1 (relative stereo) 106 to 110 °C

What does the data say about its melting point? Entry: `Cc1nc(C)c(-c2ccnc(Nc3ccc(N4CCCCC4)c(C)c3)n2)s1` 159 to 160 °C

Which melting point is listed for `Oc1cccc(-n2nc(-c3ccccc3)c3cccnc32)c1` ? 142 to 144 °C

State the recorded melting point for this entry: CC(=O)Nc1ccc(OC(=O)C2CSC(=O)N2)cc1 (stereo not given) 204 to 205 °C

Give its melting point value. Item: NCC1Cc2cc(-c3ccccc3)cc(-c3ccccc3)c2O1 (stereo not given) > 250 °C

Consider the molecule shown here: `CC(C)(C(N)=O)n1cc(-c2ccc(Oc3ccccc3)cc2)c2c(N)ncnc21` What is its recorded melting point? 227 to 228 °C

What measured melting point goes with CN1CC(CO)CC2(OCCCO)c3cccc4[nH]cc(c34)CC12 (stereo not given) ? 189 to 195 °C

Quick check: melting point of `COc1ccc(-c2c(-c3ccccc3)nc3n2Cc2ccccc2C3)cc1` ? 183 to 185 °C

What value of measured melting point is listed for `CCOC(=O)COc1ccc(C(=O)Nc2cc(Cl)ccc2Sc2ccccc2-c2nnn[nH]2)cc1` ? 206 to 208 °C

Need melting point, item COc1ccc(C2=NN(C(C)CCC(=O)Nc3ccc(C4=NNC(=O)CC4C)cc3)C(=O)C3CC=CCC23)cc1OC (stereo not given) 154 to 157 °C

I would be grateful if you could share the reported melting point for `CC1(C)CC(OC(=O)c2ccccc2C(=O)OC2CC(C)(C)N(OC3CCCCC3)C(C)(C)C2)CC(C)(C)N1OC1CCCCC1` . 149 to 151 °C

Dear colleague, I am looking for the recorded melting point of the following molecule: `COc1ccc2c(-c3ccc(C#Cc4ccccc4)cc3)cc(=O)oc2c1` 178 to 180 °C

Reported melting point for `O=C(CN1CCCCC1)Nc1ccc([N+](=O)[O-])cc1` : what is it? 144 to 145 °C

I have this molecule here, `O=C1c2[nH]c3cc(Cl)ccc3c2Oc2ccccc2N1Cc1ccccc1` , and I need its recorded melting point. 259 to 261 °C

Fill in: melting point of `COC(=O)c1cc(O)c2cc[nH]c2c1` is ___ 160 to 162 °C

Need melting point, item CCOc1cc(N)c(Cl)cc1C(=O)NCC1CN(Cc2ccc(F)cc2)CCO1 (stereo not given) 151 to 153 °C

Reported melting point for `O=C(NCCCCOc1ccc(-c2ccc(=O)[nH]n2)cc1)c1cccnc1` : what is it? 155 to 157 °C

Which measured melting point value corresponds to CCCCCCCCCCCCCCCC1CCCC(=O)C1 (stereo not given) ? 41 °C

Recorded melting point of `O=c1[nH]c2c(F)cc([N+](=O)[O-])cc2o1` , please. 177 to 179 °C
